- assayed target: (UniProt A4D937)
- Sequence (A4D937 1-450): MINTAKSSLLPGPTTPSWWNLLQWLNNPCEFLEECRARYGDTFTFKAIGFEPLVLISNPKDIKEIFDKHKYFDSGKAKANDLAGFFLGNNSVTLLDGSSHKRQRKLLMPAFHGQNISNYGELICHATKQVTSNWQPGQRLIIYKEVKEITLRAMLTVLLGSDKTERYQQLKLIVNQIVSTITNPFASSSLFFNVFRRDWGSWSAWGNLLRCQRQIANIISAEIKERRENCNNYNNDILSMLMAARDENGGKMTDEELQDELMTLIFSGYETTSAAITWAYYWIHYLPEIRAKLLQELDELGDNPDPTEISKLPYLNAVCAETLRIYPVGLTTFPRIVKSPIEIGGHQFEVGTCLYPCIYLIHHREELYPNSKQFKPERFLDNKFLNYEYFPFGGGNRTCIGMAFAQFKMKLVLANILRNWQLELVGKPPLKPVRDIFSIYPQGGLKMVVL
pKd: −log10 of the molar value.

{"columns": ["compound", "pKd"],
 "data": [
  ["COc1ccc(C[C@H]2NC(=O)/C=C/C[C@@H]([C@H](C)/C=C/c3ccccc3)OC(=O)[C@H](CC(C)C)OC(=O)[C@H](C)CNC2=O)cc1Cl [16a, cryptophycin 3]", 6.28]
]}

FYI, the data here is from paper PMC7094870.
